As shown below, each of these compounds has a reported percent inhibition of viability value.
Test system: KAI3 (IL-2 2.5 ng/mL)
Assay: percent inhibition of viability; higher = more inhibition;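 also: normalised to DMSO-only wells as negative and benzethonium chloride as positive control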
Details: 72 h; 1000 nM
Provide the reading as a plain figure in %.

compound	observation type	endpoint unit	value observed
CO[C@H]1/C=C\C=C(/C)C(=O)NC2=CC(=O)C(NCCN(C)C)=C(C[C@@H](C)C[C@H](OC)[C@H](O)[C@@H](C)/C=C(\C)[C@@H]1OC(N)=O)C2=O [Alvespimycin] (max concentration tested 1000 nM)	percent inhibition of viability	%	104
Cc1cc(Nc2cc(N3CCN(C)CC3)nc(/C=C/c3ccccc3)n2)n[nH]1 [ENMD-2076] (max concentration tested 10000 nM)	percent inhibition of viability	%	81.2

Value of measured percent inhibition of viability for the entry Cc1ccc(NC(=O)c2ccc(CN3CCN(C)CC3)cc2)cc1Nc1nccc(-c2cccnc2)n1 [Imatinib] (max concentration tested 10000 nM) : -0.85

---

System: YT (IL-2 2.5 ng/mL)
Test: percent inhibition of viability; higher = more inhibition
Conditions: 72 h; 1 nM
observation type: percent inhibition of viability (%)
Express your answer in %, writing the number without its unit.

compound	percent inhibition of viability / %
Cc1cc(Nc2cc(N3CCN(C)CC3)nc(Sc3ccc(NC(=O)C4CC4)cc3)n2)n[nH]1 [Tozasertib] (max concentration tested 10000 nM)	-3.46
C/C(=C\c1csc(C)n1)[C@@H]1C[C@@H]2O[C@]2(C)CCC[C@H](C)[C@H](O)[C@@H](C)C(=O)C(C)(C)[C@@H](O)CC(=O)O1 [Patupilone] (max concentration tested 1000 nM)	-3.77
CC(C)CC(=O)Nc1n[nH]c2c1CN(C(=O)C1CCN(C)CC1)C2(C)C (max concentration tested 10000 nM)	4.62

--- query ---
Form: item CNC(=O)c1nn(C)c2c1C(C)(C)Cc1cnc(Nc3ccc(N4CCN(C)CC4)cc3)nc1-2 [Milciclib] (max concentration tested 10000 nM) ; test system YT (IL-2 2.5 ng/mL); percent inhibition of viability: 1.63

---

Test system: KHYG-1 (IL-2 2.5 ng/mL)
Test: percent inhibition of viability; higher = more inhibition
Settings: 72 h; 0.1 nM
observation type: percent inhibition of viability (%)
Your answer is read as %, so omit the unit and give the number.

# count of solved cases: 4
compound	endpoint unit	percent inhibition of viability
O=C1c2c(O)ccc(O)c2C(=O)c2c(NCCNCCO)ccc(NCCNCCO)c21 [Mitoxantrone] (max concentration tested 1000 nM)	%	-1.32
CNC(=O)c1cc(Oc2ccc(NC(=O)Nc3ccc(Cl)c(C(F)(F)F)c3)cc2)ccn1 [Sorafenib] (max concentration tested 1000 nM)	%	-1.09
COc1cc2nccc(Oc3ccc(NC(=O)C4(C(=O)Nc5ccc(F)cc5)CC4)cc3)c2cc1OC [Cabozantinib] (max concentration tested 1000 nM)	%	-1.92
O=C(Nc1c[nH]nc1-c1nc2ccc(CN3CCOCC3)cc2[nH]1)NC1CC1 [AT9283] (max concentration tested 1000 nM)	%	0.97

Documented percent inhibition of viability of CCC/C=C/C=C/C(=O)O[C@H]1/C(=C/C(=O)OC)C[C@H]2C[C@H]([C@@H](C)O)OC(=O)C[C@H](O)C[C@@H]3C[C@H](OC(C)=O)C(C)(C)[C@](O)(C[C@@H]4C/C(=C/C(=O)OC)C[C@H](/C=C/C(C)(C)[C@]1(O)O2)O4)O3 [Bryostatin 1] (max concentration tested 100 nM) : 35.4

Measured percent inhibition of viability, Cc1ccc(NC(=O)c2ccc(CN3CC[C@H](N(C)C)C3)c(C(F)(F)F)c2)cc1Nc1nccc(-c2cncnc2)n1 [Bafetinib] (max concentration tested 1000 nM) : -4.48

Quick note, percent inhibition of viability for COc1cc2c(Oc3ccc(NC(=O)C4(C(=O)Nc5ccc(F)cc5)CC4)cc3F)ccnc2cc1OCCCN1CCOCC1 [Foretinib] (max concentration tested 1000 nM) landed at 1.36

Entry CO[C@H]1C[C@@H]2CC[C@@H](C)[C@@](O)(O2)C(=O)C(=O)N2CCCC[C@H]2C(=O)O[C@H]([C@H](C)C[C@@H]2CC[C@@H](O)[C@H](OC)C2)CC(=O)[C@H](C)/C=C(\C)[C@@H](O)[C@@H](OC)C(=O)[C@H](C)C[C@H](C)/C=C/C=C/C=C/1C [Sirolimus] (max concentration tested 100 nM) — recorded percent inhibition of viability = 2.99

GET /value?item= Nc1ccn([C@@H]2O[C@H](CO)[C@@H](O)C2(F)F)c(=O)n1 [Gemcitabine] (max concentration tested 1000 nM) &field=percent inhibition of viability returns 2.22

---

# Lookup of reported percent inhibition of viability keyed by entry
System: normal primary NK cells, pool 1 (3 donors) (IL-2 2.5 ng/mL)
Test: percent inhibition of viability; higher = more inhibition
Settings: 72 h; 10 nM
Response body: numeric value in %, unit text excluded.

Illustrative cases are given below, each with its answer.
> print(dat)
                                   compound                             target.system                 observation.type  endpoint.unit  value.observed
1  CS(=O)(=O)c1ccc(C2=C(c3ccccc3)C(=O)OC2)cc1 [Rofecoxib] (max concentration tested 10000 nM)  normal primary NK cells, pool 1 (3 donors) (IL-2 2.5 ng/mL)  percent inhibition of viability              %           -9.08
2  O=C(NOCC1CC1)c1ccc(F)c(F)c1Nc1ccc(I)cc1Cl (max concentration tested 10000 nM)  normal primary NK cells, pool 1 (3 donors) (IL-2 2.5 ng/mL)  percent inhibition of viability              %            -7.1
3  O=C1c2c(O)ccc(O)c2C(=O)c2c(NCCNCCO)ccc(NCCNCCO)c21 [Mitoxantrone] (max concentration tested 1000 nM)  normal primary NK cells, pool 1 (3 donors) (IL-2 2.5 ng/mL)  percent inhibition of viability              %            0.77

// below: percent inhibition of viability requested for another compound
Per the records, this compound ( O=C(Nc1c[nH]nc1-c1nc2ccc(CN3CCOCC3)cc2[nH]1)NC1CC1 [AT9283] (max concentration tested 1000 nM) ) has percent inhibition of viability equal to -13.3

---

Test system: KAI3 (IL-2 2.5 ng/mL)
Assay: percent inhibition of viability; higher = more inhibition
Details: 72 h; 10000 nM
observation type: percent inhibition of viability (%)
Could you give me the number in %? Just the number is fine.

> print(dat)
                                   molecule  value.observed
1  Cn1cncc1[C@@](N)(c1ccc(Cl)cc1)c1ccc2c(c1)c(-c1cccc(Cl)c1)cc(=O)n2C [Tipifarnib] (max concentration tested 10000 nM)            85.1
2  CNNCc1ccc(C(=O)NC(C)C)cc1 [Procarbazine] (max concentration tested 10000 nM)           -7.53

Please look at the following molecule next.
The molecule COc1ccc(-c2nc(N3CCOCC3)c3sc(CN(C)c4ncc(C(=O)NO)cn4)cc3n2)cn1 [CUDC-907] (max concentration tested 10000 nM) on KAI3 (IL-2 2.5 ng/mL): percent inhibition of viability was 98.9

---

Test system: SNK-6 (IL-2 2.5 ng/mL)
Assay: percent inhibition of viability; higher = more inhibition
Details: 72 h; 1 nM
Measured percent inhibition of viability, listed per entry for reference.
// units = %; emit number, no label

Measured percent inhibition of viability of CN(C)Cc1ccc(S(=O)(=O)n2ccc(/C=C/C(=O)NO)c2)cc1 [Resminostat] (max concentration tested 10000 nM) : 11.1

response.value for Cc1c(C(=O)Nc2ccc(N3C[C@@H](C)O[C@@H](C)C3)nc2)cccc1-c1ccc(OC(F)(F)F)cc1 [Sonidegib] (max concentration tested 10000 nM) (field: percent inhibition of viability) = 4.68

S=C(NCc1ccc2c(c1)OCO2)N1CCN(c2ncnc3c2oc2ccccc23)CC1 [Amuvatinib] (max concentration tested 10000 nM) has a reported percent inhibition of viability of 13.3

---

System: KAI3 (IL-2 2.5 ng/mL)
Assay: percent inhibition of viability; higher = more inhibition
Details: 72 h; 100 nM
observation type: percent inhibition of viability (%)
Report as a plain number; the unit % is understood.

For orientation, consider the following solved cases.
compound	endpoint unit	percent inhibition of viability
COc1ccc(COc2cc3oc(=O)c4cc(C(C)O)ccc4c3cc2OC)cc1 (stereo not given) [Palomid-529] (max concentration tested 10000 nM)	%	-2.91
CO[C@@H]1[C@H](N(C)C(=O)c2ccccc2)C[C@H]2O[C@]1(C)n1c3ccccc3c3c4c(c5c6ccccc6n2c5c31)C(=O)NC4 [Midostaurin] (max concentration tested 10000 nM)	%	21.1
CC(=O)[C@]1(O)Cc2c(O)c3c(c(O)c2[C@@H](O[C@H]2C[C@H](N)[C@H](O)[C@H](C)O2)C1)C(=O)c1ccccc1C3=O [Idarubicin] (max concentration tested 1000 nM)	%	88.7
C/C(=C\c1csc(C)n1)[C@@H]1C[C@@H]2O[C@]2(C)CCC[C@H](C)[C@H](O)[C@@H](C)C(=O)C(C)(C)[C@@H](O)CC(=O)O1 [Patupilone] (max concentration tested 1000 nM)	%	60.6

Would you kindly look at the next entry?
Tested on KAI3 (IL-2 2.5 ng/mL): CC(=O)Nc1ccc(C(=O)Nc2ccccc2N)cc1 [Tacedinaline] (max concentration tested 1000 nM) . Observed percent inhibition of viability: -0.59
